test: Metabolic stability in human liver microsomes assessed as unbound intrinsic clearance at 0.5 uM measured after 4 hrs; format: ADME, Microsome
MEASURED_QUANTITY: CL free (mL/min/kg)

Example cases with answers are listed next.
{"STRUCTURE_SMILES_STRING": "C[C@H](NC(=O)[C@H](CCc1ccccc1)NC(=O)c1cc(Cl)c(Cl)[nH]1)c1cn2cccnc2n1", "CL free (mL/min/kg)": 200}
{"STRUCTURE_SMILES_STRING": "O=C(N[C@H](C(=O)NCc1cn2cccnc2n1)[C@H]1CCc2ccccc2C1)c1cc(Cl)c(Cl)[nH]1", "CL free (mL/min/kg)": 667}
{"STRUCTURE_SMILES_STRING": "C[C@H](NC(=O)[C@]1(NC(=O)c2cc(Cl)c(Cl)[nH]2)CO[C@H](c2ccccc2)C1)c1ncc2c(n1)CN(C)C2", "CL free (mL/min/kg)": 88.3}

(1) CNC(=O)[C@@H]1C[C@@H](c2ccccc2)CN1C(=O)c1cc(Cl)c(Cl)[nH]1
(2) C[C@H](NC(=O)[C@]1(NC(=O)c2cc(Cl)c(Cl)[nH]2)CO[C@H](c2ccccc2)C1)c1ncc2c(n1)CN(CC(F)(F)F)C2
Prompt line: # return whichever of 1 and 2 has the smaller CL free Please identify the chosen entry by its label.
Response line: 1

(P) O=C(N[C@@H](CCc1ccccc1)C(=O)NC[C@H]1COCCO1)c1cc(Cl)c(Cl)[nH]1
(Q) O=C(N[C@H](C(=O)NCc1cn2cccnc2n1)[C@@H]1CCc2ccccc2C1)c1cc(Cl)c(Cl)[nH]1
(R) O=C(CN1C(=O)[C@@H](NC(=O)[C@@H](NC(=O)c2cc(Cl)c(Cl)[nH]2)C2CCCCC2)CSc2ccccc21)Nc1ccccc1
(S) O=C(N[C@]1(C(=O)NCc2cn3cccnc3n2)CO[C@H](c2ccccc2)C1)c1cc(Cl)c(Cl)[nH]1
Prompt line: Please list these molecules in decreasing order of CL free. Hello, could you send the labels back in the order asked? Thank you.
Response line: R, Q, P, S

(A) CNC(=O)[C@@H](NC(=O)c1cc(Cl)c(Cl)[nH]1)C1CCCCC1
(B) O=C(N[C@@H](CCc1ccccc1)C(=O)NC1(c2cn3cccnc3n2)CC1)c1cc(Cl)c(Cl)[nH]1
(C) CN1C(=O)[C@@H](NC(=O)[C@@H](NC(=O)c2cc(Cl)c(Cl)[nH]2)C2CCCCC2)COc2ccccc21
Prompt line: Could you please order the items by CL free, going from the lowest number to the highest? Form field (ranking): labels in requested order.
Response line: B, A, C

(1) C[C@H](NC(=O)[C@]1(NC(=O)c2cc(Cl)c(Cl)[nH]2)CO[C@H](c2ccccc2)C1)c1cc2c(nn1)COC2
(2) CC(=O)N1CCO[C@H](CNC(=O)[C@H](CCc2ccccc2)NC(=O)c2cc(Cl)c(Cl)[nH]2)C1
Prompt line: Looking at 1 and 2 , which one comes out lower in CL free terms? Selection: enter the item's label.
Response line: 2

(P) O=C(N[C@@H](CCc1ccccc1)C(=O)NCc1ncc(CO)cn1)c1cc(Cl)c(Cl)[nH]1
(Q) O=C(N[C@H](C(=O)NCc1cn2cccnc2n1)C1Cc2ccccc2C1)c1cc(Cl)c(Cl)[nH]1
Prompt line: # compare CL free for P vs Q ; return the one with the smaller value Kindly give the label for the entry you pick.
Response line: P
